Recorded DC50 by entry
assayedTarget: ferroportin fused to green fluorescent protein (ECR293/Fpn-GFP cells) (Mus musculus, UniProt Q9JHI9)
Sequence (Q9JHI9 whole entry, the tested form may be a part): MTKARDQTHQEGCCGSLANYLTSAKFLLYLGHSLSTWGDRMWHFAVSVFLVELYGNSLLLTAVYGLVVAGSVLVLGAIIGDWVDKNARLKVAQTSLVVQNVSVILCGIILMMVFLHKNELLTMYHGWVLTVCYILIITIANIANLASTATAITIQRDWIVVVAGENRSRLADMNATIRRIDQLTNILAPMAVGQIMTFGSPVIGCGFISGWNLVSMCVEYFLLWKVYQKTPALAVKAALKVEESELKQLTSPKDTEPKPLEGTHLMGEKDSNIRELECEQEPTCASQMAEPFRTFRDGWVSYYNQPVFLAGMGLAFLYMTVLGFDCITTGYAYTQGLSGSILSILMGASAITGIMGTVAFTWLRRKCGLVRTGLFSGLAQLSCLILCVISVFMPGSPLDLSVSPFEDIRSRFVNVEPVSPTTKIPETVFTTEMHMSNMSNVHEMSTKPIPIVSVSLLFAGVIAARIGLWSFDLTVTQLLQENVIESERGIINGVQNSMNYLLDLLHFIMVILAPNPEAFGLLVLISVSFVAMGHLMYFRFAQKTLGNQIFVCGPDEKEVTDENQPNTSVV
assayInfo: Flow cytometry of ferroportin-GFP internalization and degradation in ECR293/Fpn-GFP cells
Assay type: cell-based
settings: concentration eliciting 50% of maximal loss of fluorescence generated by reference Hep25; 24 hours; read-out: EC50 (the source's name)
Square brackets hold non-standard residues; d marks the D form. Peptide text beside a SMILES is read from it. * marks the point of attachment. Bip = N[C@@H](Cc1ccc(-c2ccccc2)cc1)C(=O)O; Oic = O=C(O)[C@@H]1C[C@@H]2CCCC[C@@H]2N1; Dip = N[C@H](C(=O)O)C(c1ccccc1)c1ccccc1; β3hF = N[C@H](CC(=O)O)Cc1ccccc1; StBu = CC(C)(C)S*
quantityMeasured: DC50 (nM)

molecule="CC[C@H](C)[C@H](NC(=O)[C@H](CSSC(C)(C)C)NC(=O)[C@@H](NC(=O)[C@@H]1CCCN1C(=O)[C@H](C)NC(=O)[C@H](Cc1c[nH]cn1)NC(=O)[C@@H](NC(=O)[C@@H](N)CC(=O)O)[C@@H](C)O)[C@@H](C)CC)C(=O)N[C@@H](Cc1ccccc1)C(N)=O [Hep9C7-SStBut] (H-DTHAPIC(StBu)IF-NH2)" resultunit=nM observedvalue=700
molecule=CC[C@H](C)[C@H](NC(=O)[C@H](CS)NC(=O)[C@@H](NC(=O)[C@@H]1CCCN1C(=O)[C@H](Cc1ccccc1)NC(=O)[C@H](Cc1c[nH]cn1)NC(=O)[C@@H](NC(=O)[C@@H](N)CC(=O)O)[C@@H](C)O)[C@@H](C)CC)C(=O)N[C@H](CC(N)=O)Cc1ccccc1 resultunit=nM observedvalue=150
molecule=CC[C@H](C)[C@H](NC(=O)[C@H](CS)NC(=O)[C@@H](NC(=O)[C@@H]1CCCN1C(=O)[C@H](Cc1ccccc1)NC(=O)[C@H](Cc1c[nH]cn1)NC(=O)[C@@H](NC(=O)[C@@H](N)CC(=O)O)[C@@H](C)O)[C@@H](C)CC)C(=O)N[C@@H](Cc1ccccc1)C(=O)N1CCC[C@@H]1C(=O)N1CCC[C@H]1C(=O)N[C@@H](CCCNC(=N)N)C(N)=O resultunit=nM observedvalue=90
molecule=CC[C@H](C)[C@H](NC(=O)[C@@H](NC(=O)[C@@H](NC(=O)[C@@H]1CCCN1C(=O)[C@H](Cc1ccccc1)NC(=O)[C@H](Cc1c[nH]cn1)NC(=O)[C@@H](NC(=O)[C@@H](N)CC(=O)O)[C@@H](C)O)[C@@H](C)CC)C(C)(C)S)C(=O)N[C@@H](Cc1ccccc1)C(N)=O resultunit=nM observedvalue=700
molecule="CC[C@H](C)[C@H](NC(=O)[C@H](CS)NC(=O)[C@@H](NC(=O)[C@@H]1C[C@@H]2CCCC[C@@H]2N1C(=O)[C@@H](NC(=O)[C@H](Cc1c[nH]cn1)NC(=O)[C@@H](NC(=O)[C@@H](N)CC(=O)O)[C@@H](C)O)C(c1ccccc1)c1ccccc1)[C@@H](C)CC)C(=O)N[C@H](C(N)=O)C(c1ccccc1)c1ccccc1 [Pr45] (H-DTH[Dip][Oic]ICI[Dip]-NH2; N-terminus assumed)" resultunit=nM observedvalue=150
molecule="CC[C@H](C)[C@H](NC(=O)[C@H](CS)NC(=O)[C@@H](NC(=O)[C@@H]1CCCN1C(=O)[C@H](Cc1ccc(-c2ccccc2)cc1)NC(=O)[C@H](Cc1c[nH]cn1)NC(=O)[C@@H](NC(=O)[C@@H](N)CC(=O)O)[C@@H](C)O)[C@@H](C)CC)C(=O)N[C@@H](Cc1ccccc1)C(N)=O [F4Bip] (H-DTH[Bip]PICIF-NH2; N-terminus assumed)" resultunit=nM observedvalue=150
molecule=CC[C@@H](C)[C@@H](NC(=O)[C@H](N)Cc1ccccc1)C(=O)N[C@H](CS)C(=O)N[C@@H](C(=O)N1CCC[C@@H]1C(=O)N[C@H](Cc1ccccc1)C(=O)N[C@H](Cc1c[nH]cn1)C(=O)N[C@@H](C(=O)N[C@H](CC(=O)O)C(N)=O)[C@H](C)O)[C@H](C)CC resultunit=nM observedvalue=900
molecule="CC[C@H](C)[C@H](NC(=O)[C@H](CS)NC(=O)[C@@H](NC(=O)[C@@H]1CCCN1C(=O)[C@H](Cc1ccccc1)NC(=O)[C@H](Cc1c[nH]cn1)NC(=O)[C@@H](NC(=O)[C@@H](N)CC(=O)O)[C@@H](C)O)[C@@H](C)CC)C(=O)N[C@H](CC(=O)N1CCC[C@@H]1C(=O)N1CCC[C@H]1C(=O)N[C@@H](CCCNC(=N)N)C(N)=O)Cc1ccccc1 [Pr20] (H-DTHFPICI[β3hF][dP]PR-NH2)" resultunit=nM observedvalue=200
